Source of measurements: ChEMBL document CHEMBL4725282

biological target: Cytochrome P450 2D6 (Homo sapiens)
Sequence (P10635 whole entry): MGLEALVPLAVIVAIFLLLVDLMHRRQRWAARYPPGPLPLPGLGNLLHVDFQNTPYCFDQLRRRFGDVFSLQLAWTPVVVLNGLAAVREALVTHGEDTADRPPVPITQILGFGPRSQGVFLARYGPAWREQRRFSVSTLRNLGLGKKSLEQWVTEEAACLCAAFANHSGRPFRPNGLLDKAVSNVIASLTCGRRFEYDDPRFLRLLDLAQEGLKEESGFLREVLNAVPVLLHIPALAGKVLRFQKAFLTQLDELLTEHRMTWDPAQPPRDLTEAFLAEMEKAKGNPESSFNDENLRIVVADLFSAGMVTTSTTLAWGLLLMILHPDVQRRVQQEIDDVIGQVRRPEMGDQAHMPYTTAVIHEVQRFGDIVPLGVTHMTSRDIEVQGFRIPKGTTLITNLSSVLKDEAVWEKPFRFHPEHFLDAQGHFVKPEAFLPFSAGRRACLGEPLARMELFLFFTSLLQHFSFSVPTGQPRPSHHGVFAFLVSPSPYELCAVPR
pIC50: −log10 of the molar value.

{"structureAsSmiles": "CC(=O)NC[C@@H]1OC(=O)N2c3cc(F)c(N4CCSCC4)cc3OC[C@@H]12", "pIC50": "< 4.30"}

* * *

biological target: Voltage-gated inwardly rectifying potassium channel KCNH2 (Homo sapiens, UniProt Q12809); test: Inhibition of human ERG expressed in HEK293 cells by whole cell manual patch clamp method
Sequence (Q12809 whole entry): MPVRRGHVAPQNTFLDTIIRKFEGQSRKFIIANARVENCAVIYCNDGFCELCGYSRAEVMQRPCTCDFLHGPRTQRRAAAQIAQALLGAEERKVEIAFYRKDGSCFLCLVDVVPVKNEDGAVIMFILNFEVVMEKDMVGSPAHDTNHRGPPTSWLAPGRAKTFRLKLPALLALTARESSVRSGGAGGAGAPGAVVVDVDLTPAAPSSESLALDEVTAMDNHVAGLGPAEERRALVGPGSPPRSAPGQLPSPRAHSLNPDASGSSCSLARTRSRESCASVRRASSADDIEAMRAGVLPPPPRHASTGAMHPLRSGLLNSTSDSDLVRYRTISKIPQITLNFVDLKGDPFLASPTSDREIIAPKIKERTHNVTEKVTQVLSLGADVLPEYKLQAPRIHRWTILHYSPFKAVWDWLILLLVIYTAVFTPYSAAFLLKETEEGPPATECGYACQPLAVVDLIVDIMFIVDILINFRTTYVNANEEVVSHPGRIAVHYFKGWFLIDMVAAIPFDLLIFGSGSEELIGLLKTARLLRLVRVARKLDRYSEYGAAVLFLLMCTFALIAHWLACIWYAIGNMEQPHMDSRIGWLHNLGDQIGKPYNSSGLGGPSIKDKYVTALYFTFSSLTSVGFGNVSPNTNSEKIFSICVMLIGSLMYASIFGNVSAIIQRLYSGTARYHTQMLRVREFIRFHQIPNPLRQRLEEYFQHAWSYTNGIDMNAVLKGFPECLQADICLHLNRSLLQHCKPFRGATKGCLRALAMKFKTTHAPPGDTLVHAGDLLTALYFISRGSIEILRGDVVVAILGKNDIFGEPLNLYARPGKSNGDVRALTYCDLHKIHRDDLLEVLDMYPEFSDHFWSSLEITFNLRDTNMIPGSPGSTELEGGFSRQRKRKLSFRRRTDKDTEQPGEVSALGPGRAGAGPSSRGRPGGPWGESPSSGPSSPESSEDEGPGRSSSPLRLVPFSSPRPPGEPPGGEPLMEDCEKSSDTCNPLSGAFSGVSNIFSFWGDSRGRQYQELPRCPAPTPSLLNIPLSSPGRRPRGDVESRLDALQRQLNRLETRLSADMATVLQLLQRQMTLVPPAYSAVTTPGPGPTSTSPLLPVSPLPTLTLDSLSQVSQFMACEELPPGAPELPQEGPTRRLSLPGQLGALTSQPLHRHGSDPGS
observationType: IC50

{"structureAsSmiles": "CC(=O)NC[C@@H]1OC(=O)N2c3cc(F)c(N4CCSCC4)cc3OC[C@@H]12", "observationType": "IC50", "recordedMeasurement": "> 30 µM"}
{"structureAsSmiles": "CC(=O)NC[C@@H]1OC(=O)N2c3cc(F)c(N4CC[S+]([O-])CC4)cc3OC[C@@H]12", "observationType": "IC50", "recordedMeasurement": "> 30 µM"}

* * *

The following compounds are shown together with reported pIC50 values.
assay: Inhibition of mitochondrial protein synthesis in rat H9c2 cells measured after 5 days by ELISA; assay type: cell-based; details: H9c2, 120 h
pIC50: −log10 of the molar value.
observationType: pIC50

{"compound": "O=C1O[C@@H](Cn2ccnn2)[C@@H]2COc3cc(N4CCSCC4)c(F)cc3N12", "qual": "<", "recordedMeasurement": 4.00}
{"compound": "NC[C@@H]1OC(=O)N2c3cc(F)c(N4CCSCC4)cc3OC[C@@H]12", "qual": "<", "recordedMeasurement": 4.00}
{"compound": "CC(C)C(=O)NC[C@@H]1OC(=O)N2c3cc(F)c(N4CCSCC4)cc3OC[C@@H]12", "qual": "<", "recordedMeasurement": 4.00}
{"compound": "O=C(NC[C@@H]1OC(=O)N2c3cc(F)c(N4CCSCC4)cc3OC[C@@H]12)C1CCC1", "qual": "=", "recordedMeasurement": 4.27}
{"compound": "CC(=O)NC[C@H]1CN(c2ccc(N3CCSCC3)c(F)c2)C(=O)O1 [SUTEZOLID]", "qual": "=", "recordedMeasurement": 5.09}
{"compound": "CC(=O)NC[C@@H]1OC(=O)N2c3cc(F)c(N4CCS(=O)(=O)CC4)cc3OC[C@@H]12", "qual": "=", "recordedMeasurement": 4.59}
{"compound": "CC(=O)NC[C@@H]1OC(=O)N2c3cc(F)c(N4CCC(F)(F)CC4)cc3OC[C@@H]12", "qual": "=", "recordedMeasurement": 4.99}

* * *

test: AUC (0 to t) in Balb/c mouse at 2.5 mg/kg, iv by LC-MS/MS analysis; assay type: ADME, organism-based; parameters: dose 2.5 mg/kg; conditions: in vivo
The following molecules are shown together with reported AUC(0-t) values.
observationType: AUC(0-t) (ng·h/mL)

{"structureAsSmiles": "CC(=O)NC[C@@H]1OC(=O)N2c3cc(F)c(N4CC[S+]([O-])CC4)cc3OC[C@@H]12", "recordedMeasurement": 443}
{"structureAsSmiles": "CC(=O)NC[C@@H]1OC(=O)N2c3cc(F)c(N4CCSCC4)cc3OC[C@@H]12", "recordedMeasurement": 1160}

* * *

assay: Inhibition of mitochondrial protein synthesis in rat H9c2 cells measured after 5 days by ELISA; assay type: cell-based; conditions: H9c2, 120 h
observationType: IC50

{"structureAsSmiles": "CC(=O)NC[C@@H]1OC(=O)N2c3cc(F)c(N4CC[S+]([O-])CC4)cc3OC[C@@H]12", "recordedMeasurement": "60.6 µM"}
{"structureAsSmiles": "CC(=O)NC[C@H]1CN(c2ccc(N3CCOCC3)c(F)c2)C(=O)O1", "recordedMeasurement": "7.98 µM"}
{"structureAsSmiles": "O=C(NC[C@@H]1OC(=O)N2c3cc(F)c(N4CCSCC4)cc3OC[C@@H]12)c1cnccn1", "recordedMeasurement": "> 100 µM"}
{"structureAsSmiles": "COC(=O)NC[C@@H]1OC(=O)N2c3cc(F)c(N4CCSCC4)cc3OC[C@@H]12", "recordedMeasurement": "> 100 µM"}
{"structureAsSmiles": "CC(=O)NC[C@@H]1OC(=O)N2c3cc(F)c(N4CCSCC4)cc3OC[C@@H]12", "recordedMeasurement": "> 100 µM"}
{"structureAsSmiles": "O=C1O[C@@H](CNc2ccon2)[C@@H]2COc3cc(N4CCSCC4)c(F)cc3N12", "recordedMeasurement": "> 100 µM"}
{"structureAsSmiles": "CC(=O)NC[C@@H]1OC(=O)N2c3cc(F)c(N4CCOCC4)cc3OC[C@@H]12", "recordedMeasurement": "51.2 µM"}
{"structureAsSmiles": "O=C(NC[C@@H]1OC(=O)N2c3cc(F)c(N4CCSCC4)cc3OC[C@@H]12)C1CC1", "recordedMeasurement": "> 100 µM"}
{"structureAsSmiles": "O=C(NC[C@@H]1OC(=O)N2c3cc(F)c(N4CCSCC4)cc3OC[C@@H]12)c1ccncc1", "recordedMeasurement": "> 100 µM"}

* * *

experiment: Tmax in Balb/c mouse at 2.5 mg/kg, iv by LC-MS/MS analysis; format: ADME, organism-based; details: in vivo

{"structureAsSmiles": "CC(=O)NC[C@@H]1OC(=O)N2c3cc(F)c(N4CC[S+]([O-])CC4)cc3OC[C@@H]12", "uom": "min", "Tmax": 42}

* * *

target: Amine oxidase [flavin-containing] A (Homo sapiens, UniProt P21397); assay: Inhibition of recombinant human MAOA expressed in baculovirus infected insect cells using kynuramine as substrate measured after 20 mins by LC-MS/MS analysis
Sequence (P21397 whole entry): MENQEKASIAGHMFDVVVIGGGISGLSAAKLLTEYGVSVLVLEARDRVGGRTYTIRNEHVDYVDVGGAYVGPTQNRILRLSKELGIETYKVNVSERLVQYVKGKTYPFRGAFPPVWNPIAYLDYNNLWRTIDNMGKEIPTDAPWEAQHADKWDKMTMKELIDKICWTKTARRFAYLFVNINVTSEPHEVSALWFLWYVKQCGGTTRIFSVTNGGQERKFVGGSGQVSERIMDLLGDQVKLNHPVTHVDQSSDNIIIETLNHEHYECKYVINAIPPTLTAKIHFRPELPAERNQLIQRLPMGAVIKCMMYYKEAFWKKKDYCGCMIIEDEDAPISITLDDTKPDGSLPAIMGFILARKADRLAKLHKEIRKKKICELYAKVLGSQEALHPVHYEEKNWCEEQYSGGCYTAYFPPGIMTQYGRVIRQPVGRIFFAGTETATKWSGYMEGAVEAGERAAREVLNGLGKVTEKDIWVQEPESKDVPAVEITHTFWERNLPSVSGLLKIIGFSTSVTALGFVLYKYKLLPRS
pIC50: −log10 of the molar value.

{"structureAsSmiles": "CC(=O)NC[C@@H]1OC(=O)N2c3cc(F)c(N4CCSCC4)cc3OC[C@@H]12", "testedSystem": "Amine oxidase [flavin-containing] A (Homo sapiens, UniProt P21397)", "qual": "=", "pIC50": 4.35}
{"structureAsSmiles": "CC(=O)NC[C@@H]1OC(=O)N2c3cc(F)c(N4CC[S+]([O-])CC4)cc3OC[C@@H]12", "testedSystem": "Amine oxidase [flavin-containing] A (Homo sapiens, UniProt P21397)", "qual": "<", "pIC50": 4.00}
{"structureAsSmiles": "CC(=O)NC[C@H]1CN(c2ccc(N3CCSCC3)c(F)c2)C(=O)O1", "testedSystem": "Amine oxidase [flavin-containing] A (Homo sapiens, UniProt P21397)", "qual": "=", "pIC50": 4.89}

* * *

assay: Clearance in Balb/c mouse at 2.5 mg/kg, iv by LC-MS/MS analysis; format: ADME, organism-based; details: in vivo

{"structureAsSmiles": "CC(=O)NC[C@@H]1OC(=O)N2c3cc(F)c(N4CCSCC4)cc3OC[C@@H]12", "clearance (mL/min/kg)": 36.5}

* * *

assay: AUC (0 to infinity) in Balb/c mouse at 25 mg/kg, po by LC-MS/MS analysis; format: ADME, organism-based; set-up: route oral, time infinity, dose 25 mg/kg; conditions: in vivo

{"structureAsSmiles": "CC(=O)NC[C@@H]1OC(=O)N2c3cc(F)c(N4CCS(=O)(=O)CC4)cc3OC[C@@H]12", "uom": "ng·h/mL", "AUC(0-inf)": 1480}
{"structureAsSmiles": "CC(=O)NC[C@@H]1OC(=O)N2c3cc(F)c(N4CC[S+]([O-])CC4)cc3OC[C@@H]12", "uom": "ng·h/mL", "AUC(0-inf)": 9020}
{"structureAsSmiles": "CC(=O)NC[C@@H]1OC(=O)N2c3cc(F)c(N4CCSCC4)cc3OC[C@@H]12", "uom": "ng·h/mL", "AUC(0-inf)": 7620}

* * *

assay: MRT (0 to infinity) in Balb/c mouse at 2.5 mg/kg, iv by LC-MS/MS analysis; assay type: ADME, organism-based; settings: in vivo

{"structureAsSmiles": "CC(=O)NC[C@@H]1OC(=O)N2c3cc(F)c(N4CC[S+]([O-])CC4)cc3OC[C@@H]12", "MRT inf (h)": 6.22}
{"structureAsSmiles": "CC(=O)NC[C@@H]1OC(=O)N2c3cc(F)c(N4CCSCC4)cc3OC[C@@H]12", "MRT inf (h)": 0.691}

* * *

assay: AUC (0 to infinity) in Balb/c mouse at 2.5 mg/kg, iv by LC-MS/MS analysis; assay type: ADME, organism-based; set-up: time infinity, route intravenous, dose 2.5 mg/kg; conditions: in vivo
observationType: AUC(0-inf)

{"structureAsSmiles": "CC(=O)NC[C@@H]1OC(=O)N2c3cc(F)c(N4CC[S+]([O-])CC4)cc3OC[C@@H]12", "observationType": "AUC(0-inf)", "recordedMeasurement": "592 ng·h/mL"}
{"structureAsSmiles": "CC(=O)NC[C@@H]1OC(=O)N2c3cc(F)c(N4CCSCC4)cc3OC[C@@H]12", "observationType": "AUC(0-inf)", "recordedMeasurement": "1190 ng·h/mL"}
